# test-target: Cbl-B (Homo sapiens)
# Construct: MSD-Based Assay for Degradation of Cbl-B in THP-1 Cells; endogenous in cells; host or cells: THP-1 (title) / Jurkat (protocol text)
# experiment-description: MSD-based assay for degradation of Cbl-B in THP-1 cells
# Type: cell-based
# assay-context: THP-1
readout-kind: Dmax

| compound | Dmax |
| --- | --- |
| Cn1cnnc1[C@@H](c1cccc(-n2cc3c(C(F)(F)F)cc(CN4CCC(N5CCN(c6ccc7c(c6)CN([C@@H]6CCC(=O)NC6=O)C7=O)CC5)CC4)cn3c2=O)c1)C1CCC1 (single isomer, unassigned) | < 30% |

Qu. Give the measured Dmax of Cn1cnnc1CC1(c2cccc(-n3cc4c(C(F)(F)F)cc(CN5CCN(CCN6CCC(CN7CCN(c8ccc9c(c8)CN([C@@H]8CCC(=O)NC8=O)C9=O)CC7)CC6)CC5)cn4c3=O)c2)COC1 (single isomer, unassigned) .
Ans. 50 to 70%

###

# test-target: Cbl-B (Homo sapiens, UniProt Q13191)
# Construct: MSD-Based Assay for Degradation of Cbl-B in THP-1 Cells; endogenous in cells; host or cells: THP-1 (title) / Jurkat (protocol text)
# Sequence (Q13191 whole entry): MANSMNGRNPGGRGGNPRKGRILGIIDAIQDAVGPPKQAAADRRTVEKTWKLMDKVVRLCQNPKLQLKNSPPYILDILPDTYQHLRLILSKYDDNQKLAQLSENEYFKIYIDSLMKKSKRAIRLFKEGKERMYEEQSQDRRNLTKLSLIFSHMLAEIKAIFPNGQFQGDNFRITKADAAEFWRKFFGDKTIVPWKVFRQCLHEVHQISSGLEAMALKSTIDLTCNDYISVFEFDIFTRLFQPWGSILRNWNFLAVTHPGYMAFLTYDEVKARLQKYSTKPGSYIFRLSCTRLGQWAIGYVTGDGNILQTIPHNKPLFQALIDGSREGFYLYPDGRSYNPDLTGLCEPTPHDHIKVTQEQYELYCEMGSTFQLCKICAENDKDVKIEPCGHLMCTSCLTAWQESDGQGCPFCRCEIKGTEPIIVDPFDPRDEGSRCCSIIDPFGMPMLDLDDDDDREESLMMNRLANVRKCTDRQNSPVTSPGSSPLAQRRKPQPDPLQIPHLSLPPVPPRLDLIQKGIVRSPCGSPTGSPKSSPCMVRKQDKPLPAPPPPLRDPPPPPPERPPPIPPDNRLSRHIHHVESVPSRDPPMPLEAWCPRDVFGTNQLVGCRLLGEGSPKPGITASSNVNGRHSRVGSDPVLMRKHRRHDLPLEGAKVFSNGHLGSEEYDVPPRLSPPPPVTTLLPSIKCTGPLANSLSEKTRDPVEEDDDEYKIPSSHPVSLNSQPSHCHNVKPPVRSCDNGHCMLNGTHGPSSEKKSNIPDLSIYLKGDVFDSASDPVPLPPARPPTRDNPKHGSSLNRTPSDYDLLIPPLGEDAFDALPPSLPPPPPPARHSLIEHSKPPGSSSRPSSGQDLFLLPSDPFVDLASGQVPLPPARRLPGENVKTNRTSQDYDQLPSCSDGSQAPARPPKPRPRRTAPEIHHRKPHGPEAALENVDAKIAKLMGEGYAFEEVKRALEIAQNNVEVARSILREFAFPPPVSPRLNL
# experiment-description: MSD-based assay for degradation of Cbl-B in THP-1 cells
# Format: cell-based
# assay-context: Cbl-B degradation, Jurkat cells seeded (heading: THP-1 cells), 24 hours incubation, MSD readout
readout-kind: DC50

Worked examples, 2 compounds total:
| compound | meas-value |
| --- | --- |
| Cn1cnnc1CC1(c2cccc(-n3cc4c(C(F)(F)F)cc(CN5CCN(C(=O)CN6CCC(CN7CCN(c8ccc9c(c8)CN([C@@H]8CCC(=O)NC8=O)C9=O)CC7)CC6)CC5)cn4c3=O)c2)COC1 (single isomer, unassigned) | > 10000 nM |
| Cn1cnnc1[C@@H](c1cccc(-n2cc3c(C(F)(F)F)cc(CN4CCC(OC(=O)N5CCC(CC6CCN(c7ccc8c(c7)CN([C@H]7CCC(=O)NC7=O)C8=O)CC6)CC5)CC4)cn3c2=O)c1)C1CCC1 (single isomer, unassigned) | < 30 nM |

Qu. Give the measured DC50 of CN(CCN(C)C(=O)c1ccc(C2CCN(c3ccc4c(c3)CN([C@H]3CCC(=O)NC3=O)C4=O)CC2)cc1)Cc1cc(C(F)(F)F)c2cn(-c3cccc([C@H](c4nncn4C)C4CCC4)c3)c(=O)n2c1 (single isomer, unassigned) .
Ans. > 10000 nM

Qu. Give the measured DC50 of Cn1cnnc1CC1(c2cccc(-n3cc4c(C(F)(F)F)cc(CN5CCC(N6CCN(c7ccc8c(c7)CN(C7CCC(=O)NC7=O)C8=O)CC6)CC5)cn4c3=O)c2)COC1 (stereo not drawn) .
Ans. > 10000 nM

Qu. Give the measured DC50 of CN(C(=O)c1ccc(N2CCN(c3ccc4c(c3)CN([C@H]3CCC(=O)NC3=O)C4=O)CC2)cc1)C1CCN(Cc2cc(C(F)(F)F)c3cn(-c4cccc([C@H](c5nncn5C)C5CCC5)c4)c(=O)n3c2)CC1 .
Ans. 300 to 1000 nM

Qu. Give the measured DC50 of Cn1cnnc1CC1(c2cccc(-n3cc4c(C(F)(F)F)cc(CN5CCN(CCN6CCC(CN7CCN(c8ccc9c(c8)CN([C@@H]8CCC(=O)NC8=O)C9=O)CC7)CC6)CC5)cn4c3=O)c2)COC1 (single isomer, unassigned) .
Ans. 30 to 300 nM

Qu. Give the measured DC50 of Cn1cnnc1CC1(c2cccc(-n3cc4c(C(F)(F)F)cc(CN5CCC(OCCOCc6ccc(CN7CCN(c8cccc9c8C(=O)N(C8CCC(=O)NC8=O)C9=O)CC7)cc6)CC5)cn4c3=O)c2)COC1 (stereo not drawn) .
Ans. > 10000 nM

Qu. Give the measured DC50 of Cn1cnnc1CC1(c2cccc(N3Cc4c(cc(CN5CCC(OCCN6CCC(CN7CCN(c8ccc9c(c8)CN([C@H]8CCC(=O)NC8=O)C9=O)CC7)CC6)CC5)cc4C(F)(F)F)C3=O)c2)COC1 .
Ans. 30 to 300 nM

Qu. Give the measured DC50 of Cn1cnnc1[C@@H](c1cccc(-n2cc3c(C(F)(F)F)cc(CN4CCN(c5ccc(C(=O)N6CCC(C7CCN(c8ccc9c(c8)CN([C@@H]8CCC(=O)NC8=O)C9=O)CC7)CC6)cc5)CC4)cn3c2=O)c1)C1CCC1 (single isomer, unassigned) .
Ans. 1000 to 10000 nM
